Values from patent US20250213705A1

Reported values: pKd for UniProt Q04609, one per item.
On this scale, pKd is minus log10 of a concentration expressed in M (mol/L).

MOLECULE_SMILES: CC(=O)NCCOCCOCCOCCC(=O)NC[C@H]1CC[C@H](C(=O)N[C@@H](Cc2ccc(C(=O)O)cc2)C(=O)NCCCC[C@H](NC(=O)N[C@@H](CCC(=O)O)C(=O)O)C(=O)O)CC1
TARGET_OR_TEST_SYSTEM: UniProt Q04609
pKd: 7.97
//
MOLECULE_SMILES: CC(=O)NCCOCCOCCOCCC(=O)NC[C@H]1CC[C@H](C(=O)N[C@@H](Cc2ccccc2)C(=O)NCCCC[C@H](NC(=O)N[C@@H](CCC(=O)O)C(=O)O)C(=O)O)CC1
TARGET_OR_TEST_SYSTEM: UniProt Q04609
pKd: 8.78

From here, focus on the item given below.
IN: # query: pKd | item CC(=O)NCCOCCOCCOCCC(=O)N(CCCCOc1cc(C#N)cc(C#N)c1)CC(=O)N[C@@H](Cc1ccc2ccccc2c1)C(=O)NCCCC[C@H](NC(=O)N[C@@H](CCC(=O)O)C(=O)O)C(=O)O | system: UniProt Q04609
OUT: 9.30

----------
Parameter pKi: see the listing below.
- TARGET_OR_TEST_SYSTEM: Recombinant Human PSMA/FOLH1 Protein (Homo sapiens (Human), UniProt Q04609)
- Sequence (Q04609 whole entry): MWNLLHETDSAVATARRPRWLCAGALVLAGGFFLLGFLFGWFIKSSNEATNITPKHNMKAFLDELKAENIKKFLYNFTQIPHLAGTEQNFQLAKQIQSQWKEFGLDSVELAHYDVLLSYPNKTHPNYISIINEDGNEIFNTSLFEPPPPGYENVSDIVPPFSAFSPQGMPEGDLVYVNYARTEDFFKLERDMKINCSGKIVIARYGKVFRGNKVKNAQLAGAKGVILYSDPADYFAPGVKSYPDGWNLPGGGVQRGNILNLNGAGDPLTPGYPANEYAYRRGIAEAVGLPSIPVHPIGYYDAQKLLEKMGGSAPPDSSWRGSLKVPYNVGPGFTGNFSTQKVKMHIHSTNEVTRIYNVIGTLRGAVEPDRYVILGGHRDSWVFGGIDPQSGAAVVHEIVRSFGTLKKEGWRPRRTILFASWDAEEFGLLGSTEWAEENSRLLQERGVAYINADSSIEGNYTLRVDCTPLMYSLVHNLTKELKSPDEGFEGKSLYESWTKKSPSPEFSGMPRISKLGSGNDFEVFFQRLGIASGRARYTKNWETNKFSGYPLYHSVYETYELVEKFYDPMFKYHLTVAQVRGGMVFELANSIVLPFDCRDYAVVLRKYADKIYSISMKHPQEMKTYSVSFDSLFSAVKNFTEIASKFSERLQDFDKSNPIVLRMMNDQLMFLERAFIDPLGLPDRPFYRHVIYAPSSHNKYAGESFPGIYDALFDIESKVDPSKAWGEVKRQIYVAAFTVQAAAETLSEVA
- ASSAY_NAME: Inhibition assay (Amplex Red glutamic acid/glutamate oxidase, NAAG substrate)
- SETUP_CONDITIONS: Target PSMA; calculated based on Cheng-Prusoff equation; average of N replicates
When answering, recall that pKi equals minus log10 of the concentration in mol/L, and write that number alone.

COMPOUND: CC(=O)NCCOCCOCCOCCC(=O)NC[C@H]1CC[C@H](C(=O)N[C@@H](C)C(=O)NCCCC[C@H](NC(=O)N[C@@H](CCC(=O)O)C(=O)O)C(=O)O)CC1
RESULT_NUMBER: 8.42
--
COMPOUND: CC(=O)NCCOCCOCCOCCC(=O)NC[C@H]1CC[C@H](C(=O)N[C@H](Cc2c[nH]c3ccccc23)C(=O)NCCCC[C@H](NC(=O)N[C@@H](CCC(=O)O)C(=O)O)C(=O)O)CC1
RESULT_NUMBER: 9.23
--
COMPOUND: CC(=O)NCCOCCOCCOCCC(=O)N[C@@H](CCCOc1ccc(F)cc1F)C(=O)NC[C@H]1CC[C@H](C(=O)N[C@@H](Cc2ccc3ccccc3c2)C(=O)NCCCC[C@H](NC(=O)N[C@@H](CCC(=O)O)C(=O)O)C(=O)O)CC1
RESULT_NUMBER: 8.96
--
COMPOUND: CC(=O)NCCOCCOCCOCCC(=O)NC[C@H]1CC[C@H](C(=O)N[C@@H](CCCC(=O)O)C(=O)NCCCC[C@H](NC(=O)N[C@@H](CCC(=O)O)C(=O)O)C(=O)O)CC1
RESULT_NUMBER: 7.97
--
COMPOUND: CC(=O)NCCOCCOCCOCCC(=O)N[C@@H]1C[C@@H](C(=O)NCC(=O)N[C@@H](Cc2ccc3ccccc3c2)C(=O)NCCCC[C@H](NC(=O)N[C@@H](CCC(=O)O)C(=O)O)C(=O)O)N(C(=O)COc2cc(C#N)cc(C#N)c2)C1
RESULT_NUMBER: 9.20
--
COMPOUND: CC(=O)NCCOCCOCCOCCC(=O)N(CCCOc1ccc(F)cc1F)CC(=O)NC[C@H]1CC[C@H](C(=O)N[C@@H](Cc2ccc3ccccc3c2)C(=O)NCCCC[C@H](NC(=O)N[C@@H](CCC(=O)O)C(=O)O)C(=O)O)CC1
RESULT_NUMBER: 9.44
--
COMPOUND: CC(=O)NCCOCCOCCOCCC(=O)NC[C@H]1CC[C@H](C(=O)N[C@@H](Cc2ccc(C(=O)O)cc2)C(=O)NCCCC[C@H](NC(=O)N[C@@H](CCC(=O)O)C(=O)O)C(=O)O)CC1
RESULT_NUMBER: 8.84
--
COMPOUND: CC(=O)NCCOCCOCCOCCC(=O)NC[C@H]1CC[C@H](C(=O)N[C@H](Cc2ccccc2)C(=O)NCCCC[C@H](NC(=O)N[C@@H](CCC(=O)O)C(=O)O)C(=O)O)CC1
RESULT_NUMBER: 8.41

IN: Identify the measured pKi of CC(=O)NCCOCCOCCOCCC(=O)N(CCCCOc1cc(C#N)cc(C#N)c1)CC(=O)N[C@@H](Cc1ccc2ccccc2c1)C(=O)NCCCC[C@H](NC(=O)N[C@@H](CCC(=O)O)C(=O)O)C(=O)O for Recombinant Human PSMA/FOLH1 Protein (Homo sapiens (Human), UniProt Q04609).
OUT: 7.98

IN: // fetch Recombinant Human PSMA/FOLH1 Protein (Homo sapiens (Human), UniProt Q04609) pKi for CC(=O)NCCOCCOCCOCCC(=O)N[C@@H](Cc1ccncc1)C(=O)NCC(=O)N[C@@H](Cc1ccc2ccccc2c1)C(=O)NCCCC[C@H](NC(=O)N[C@@H](CCC(=O)O)C(=O)O)C(=O)O
OUT: 10.12

IN: Recall the recorded pKi for CC(=O)NCCOCCOCCOCCC(=O)NC[C@H]1CC[C@H](C(=O)N[C@@H](Cc2ccc(OCc3ccccc3)cc2)C(=O)NCCCC[C@H](NC(=O)N[C@@H](CCC(=O)O)C(=O)O)C(=O)O)CC1 with Recombinant Human PSMA/FOLH1 Protein (Homo sapiens (Human), UniProt Q04609) and state it.
OUT: 8.63

----------
Dear all, this message contains pKd results, target or system human FOLH1 (Homo sapiens (Human)).
In plain terms, pKd is the concentration in mol/L turned into minus its base-10 logarithm.

Some entries whose results are on file:
COMPOUND: CC(=O)NCCOCCOCCOCCC(=O)N[C@@H]1C[C@@H](C(=O)N[C@@H](Cc2ccc3ccccc3c2)C(=O)NCCCC[C@H](NC(=O)N[C@@H](CCC(=O)O)C(=O)O)C(=O)O)N(C(=O)CCCOc2cc(C#N)cc(C#N)c2)C1 (stereo in doubt) [Compound 82]
pKd: 8.28
//
COMPOUND: CC(=O)NCCOCCOCCOCCC(=O)NC[C@H]1CC[C@H](C(=O)N[C@@H](Cc2ccc3ccccc3c2)C(=O)NCCCC[C@H](NC(=O)N[C@@H](CCc2n[nH]c(=O)o2)C(=O)O)C(=O)O)CC1 [Compound 48]
pKd: 5.78
//
COMPOUND: CC(=O)NCCOCCOCCOCCC(=O)NC[C@H]1CC[C@H](C(=O)N[C@@H](Cc2c[nH]c3ccc(F)cc23)C(=O)NCCCC[C@H](NC(=O)N[C@@H](CCC(=O)O)C(=O)O)C(=O)O)CC1 [Compound 12]
pKd: 9.25

IN: Record lookup: for human FOLH1 (Homo sapiens (Human)), what pKd belongs to CC(=O)NCCOCCOCCOCCC(=O)N(CCCOc1ccc(F)cc1F)CC(=O)NC[C@H]1CC[C@H](C(=O)N[C@@H](Cc2ccc3ccccc3c2)C(=O)NCCCC[C@H](NC(=O)N[C@@H](CCC(=O)O)C(=O)O)C(=O)O)CC1 [Compound 39] ?
OUT: 8.97

IN: # value lookup — system human FOLH1 (Homo sapiens (Human)), readout pKd, item CC(=O)NCCOCCOCCOCCC(=O)NC[C@H]1CC[C@H](C(=O)N[C@@H](Cc2ccc(-c3ccccc3)cc2)C(=O)NCCCC[C@H](NC(=O)N[C@@H](CCC(=O)O)C(=O)O)C(=O)O)CC1 [Compound 7]
OUT: 8.24

IN: # get_value(readout= pKd, system= human FOLH1 (Homo sapiens (Human))) for CC(=O)NCCOCCOCCOCCC(=O)N1C[C@H](NC(=O)COc2cc(C#N)cc(C#N)c2)C[C@H]1C(=O)N[C@@H](Cc1ccc2ccccc2c1)C(=O)NCCCC[C@H](NC(=O)N[C@@H](CCC(=O)O)C(=O)O)C(=O)O [Compound 79]
OUT: 8.42

IN: Hello, I am looking for reported pKd with human FOLH1 (Homo sapiens (Human)) for CC(=O)NCCOCCOCCOCCC(=O)NC[C@H]1CC[C@H](C(=O)N[C@H](Cc2c[nH]c3ccccc23)C(=O)NCCCC[C@H](NC(=O)N[C@@H](CCC(=O)O)C(=O)O)C(=O)O)CC1 [Compound 5] . Could you help?
OUT: 8.56

----------
Listed here are compounds together with their documented pIC50.
- TARGET_OR_TEST_SYSTEM: Recombinant Human PSMA/FOLH1 Protein (Homo sapiens (Human), UniProt Q04609)
- ASSAY_NAME: Inhibition assay (Amplex Red glutamic acid/glutamate oxidase, NAAG substrate)
- SETUP_CONDITIONS: Target PSMA; average of N replicates; PSMA 5 nM, NAAG 40 μM
A value of pIC50 is the negative decimal logarithm of a concentration given in moles per litre.

Recorded results for 3 compounds are shown here.
MOLECULE_SMILES: CC(=O)NCCOCCOCCOCCC(=O)NC[C@H]1CC[C@H](C(=O)N[C@@H](Cc2ccc3ccccc3c2)C(=O)NCCCC[C@H](NC(=O)N[C@@H](CCC(=O)O)C(=O)O)C(=O)O)CC1
VALUE_KIND: pIC50
RESULT_NUMBER: 7.53
--
MOLECULE_SMILES: CC(=O)NCCOCCOCCOCCC(=O)NC[C@H]1CC[C@H](C(=O)N[C@@H](Cc2c[nH]cn2)C(=O)NCCCC[C@H](NC(=O)N[C@@H](CCC(=O)O)C(=O)O)C(=O)O)CC1
VALUE_KIND: pIC50
RESULT_NUMBER: 5.97
--
MOLECULE_SMILES: CC(=O)NCCOCCOCCOCCC(=O)NC[C@H]1CC[C@H](C(=O)N[C@@H](Cc2ccncc2)C(=O)NCCCC[C@H](NC(=O)N[C@@H](CCC(=O)O)C(=O)O)C(=O)O)CC1
VALUE_KIND: pIC50
RESULT_NUMBER: 6.75

IN: For the compound CC(=O)NCCOCCOCCOCCC(=O)NC[C@H]1CC[C@H](C(=O)N[C@H](Cc2ccccc2)C(=O)NCCCC[C@H](NC(=O)N[C@@H](CCC(=O)O)C(=O)O)C(=O)O)CC1 , what pIC50 is on record?
OUT: 6.27

IN: I have this compound here, CC(=O)NCCOCCOCCOCCC(=O)N[C@@H](CCCOc1cc(C#N)cc(C#N)c1)C(=O)NCCC(=O)N[C@@H](Cc1ccc2ccccc2c1)C(=O)NCCCC[C@H](NC(=O)N[C@@H](CCC(=O)O)C(=O)O)C(=O)O , and I need its recorded pIC50.
OUT: 7.95
